Assay: Fluorescence of the adducts with butylamine in acetonitrile
Format: physicochemical
Conditions: Bioconjugated molecule (BuNH2) in CH3CN; excitation at maximum-absorption wavelength
Description: Apparatus: • Acetonitrile: VWR HPLC quality • Micropipette: 5 μl, 10 μl, 200 μl, 1000 μl, • Eppendorf: Safe lock tube PCR • UV cuvette: Varian-Quartz 10 mm thick • Fluorescence cuvette: Hellma-Quartz 10 mm thick • Vortex: Bender & Hobein-Genie 2 • Centrifuge: Baky Bug • Absorbance spectrophotometer: Varian-Cary 50 scan • Fluorescence spectrophotometer: Varian-Cary Eclipse • Thermostated bath: Varian-Cary single cell peltier accessory Stock Solution: […]
endpoint_name: λ fluo (λ excitation) (nm)

{"columns": ["compound", "value_units", "recorded_measurement"],
 "data": [
  ["CC1(C)CC2=CC3=C(C(=O)/C=C(\\O)c4ccccc4)C(=O)OC3(C)C(=O)C2=CO1 (stereo not shown)", "nm", 606],
  ["CC1CC2=CC3=C(C(=O)c4ccccc4)C(=O)OC3(C)C(=O)C2=CO1 (stereo not shown)", "nm", 585],
  ["COc1ccc(C(=O)C2=C3C=C4CC(C)OC=C4C(=O)C3(C)OC2=O)cc1 (stereo not shown)", "nm", 586],
  ["CC1(C)CC2=CC3=C(C(=O)/C=C(\\O)c4ccc5ccccc5c4)C(=O)OC3(C)C(=O)C2=CO1 (stereo not shown)", "nm", 609],
  ["COc1ccccc1C(=O)C1=C2C=C3CC(C)OC=C3C(=O)C2(C)OC1=O (stereo not shown)", "nm", 589],
  ["CC1(C)CC2=CC3=C(/C(O)=C/C(=O)c4ccc(Cl)nc4)C(=O)OC3(C)C(=O)C2=CO1 (stereo not shown)", "nm", 612],
  ["COc1ccc(/C(O)=C/C(=O)C2=C3C=C4CC(C)(C)OC=C4C(=O)C3(C)OC2=O)cc1 (stereo not shown)", "nm", 603],
  ["CC1CC2=CC3=C(C(=O)c4ccccc4O)C(=O)OC3(C)C(=O)C2=CO1 (stereo not shown)", "nm", 597],
  ["COc1ccc(C(=O)C(C)C(=O)C2=C3C=C4CC(C)(C)OC=C4C(=O)C3(C)OC2=O)cc1 (stereo not shown)", "nm", 588],
  ["CC1CC2=CC3=C(C(=O)c4ccco4)C(=O)OC3(C)C(=O)C2=CO1 (stereo not shown)", "nm", 593],
  ["CC1CC2=CC3=C(C(=O)c4ccc5ccccc5c4)C(=O)OC3(C)C(=O)C2=CO1 (stereo not shown)", "nm", 570],
  ["C/C=C/C=C/C=C/C(=O)/C=C(\\O)C1=C2C=C3C[C@@H](CO)OC=C3C(=O)[C@@]2(C)OC1=O [epicocconone, reference compound]", "nm", 610],
  ["COCCOCCOc1ccc(C(=O)C2=C3C=C4CC(C)OC=C4C(=O)C3(C)OC2=O)cc1 (stereo not shown)", "nm", 590],
  ["COc1ccc(/C(O)=C/C(=O)C2=C3C=C4CC(C)OC=C4C(=O)C3(C)OC2=O)cc1 (stereo not shown)", "nm", 596],
  ["CC(C(=O)C1=C2C=C3CC(C)(C)OC=C3C(=O)C2(C)OC1=O)C(=O)c1ccccc1 (stereo not shown)", "nm", 591],
  ["COc1ccc(C(=O)C2=C3C=C4CC(C)(C)OC=C4C(=O)C3(C)OC2=O)cc1 (stereo not shown)", "nm", 590]
]}

* * *

Experiment: Fluorescence of the adducts with butylamine in acetonitrile
Assay type: physicochemical
Conditions: Bioconjugated molecule (BuNH2) in CH3CN; fluorescence intensity
endpoint_name: Intensity normalized to 50 μM

{"columns": ["compound", "Intensity normalized to 50 μM"],
 "data": [
  ["COc1ccc(/C(O)=C/C(=O)C2=C3C=C4CC(C)OC=C4C(=O)C3(C)OC2=O)cc1 (stereo not drawn)", 3020],
  ["COc1ccc(C(=O)C2=C3C=C4CC(C)OC=C4C(=O)C3(C)OC2=O)cc1 (stereo not drawn)", 205],
  ["CC1CC2=CC3=C(C(=O)c4ccco4)C(=O)OC3(C)C(=O)C2=CO1 (stereo not drawn)", 193],
  ["COc1ccccc1C(=O)C1=C2C=C3CC(C)OC=C3C(=O)C2(C)OC1=O (stereo not drawn)", 147]
]}

A: COCCOCCOc1ccc(C(=O)C2=C3C=C4CC(C)OC=C4C(=O)C3(C)OC2=O)cc1 (stereo not drawn)
B: CC1(C)CC2=CC3=C(/C(O)=C/C(=O)c4ccc(Cl)nc4)C(=O)OC3(C)C(=O)C2=CO1 (stereo not drawn)
C: CC(C(=O)C1=C2C=C3CC(C)(C)OC=C3C(=O)C2(C)OC1=O)C(=O)c1ccccc1 (stereo not drawn)
D: CC1(C)CC2=CC3=C(C(=O)/C=C(\O)c4ccc5ccccc5c4)C(=O)OC3(C)C(=O)C2=CO1 (stereo not drawn)
E: CC1CC2=CC3=C(C(=O)c4ccccc4O)C(=O)OC3(C)C(=O)C2=CO1 (stereo not drawn)
Qu. Write the entries in order, lowest recorded Intensity normalized to 50 μM first. Give me the labels in the order the question wants.
Ans. E, A, C, B, D
(E: 32, A: 120, C: 202, B: 2764, D: 4320)

* * *

Test: Absorbance of the adducts with butylamine in acetonitrile
Format: physicochemical
Conditions: Bioconjugated molecule (BuNH2) in CH3CN; shorter-wavelength absorption maximum
endpoint_name: λ UV (nm), first maximum

{"columns": ["compound", "λ UV (nm), first maximum"],
 "data": [
  ["CC(C(=O)C1=C2C=C3CC(C)(C)OC=C3C(=O)C2(C)OC1=O)C(=O)c1ccccc1 (centres unmarked) [Im]", 351],
  ["CC1CC2=CC3=C(C(=O)c4ccc5ccccc5c4)C(=O)OC3(C)C(=O)C2=CO1 (centres unmarked) [Id]", 351],
  ["COc1ccc(C(=O)C(C)C(=O)C2=C3C=C4CC(C)(C)OC=C4C(=O)C3(C)OC2=O)cc1 (centres unmarked) [Il]", 350],
  ["COc1ccc(C(=O)C2=C3C=C4CC(C)(C)OC=C4C(=O)C3(C)OC2=O)cc1 (centres unmarked) [Ih]", 354],
  ["C/C=C/C=C/C=C/C(=O)/C=C(\\O)C1=C2C=C3C[C@@H](CO)OC=C3C(=O)[C@@]2(C)OC1=O [epicocconone, reference compound]", 388],
  ["COc1ccccc1C(=O)C1=C2C=C3CC(C)OC=C3C(=O)C2(C)OC1=O (centres unmarked) [If]", 351],
  ["CC1CC2=CC3=C(C(=O)c4ccco4)C(=O)OC3(C)C(=O)C2=CO1 (centres unmarked) [Ic]", 352],
  ["CC1(C)CC2=CC3=C(/C(O)=C/C(=O)c4ccc(Cl)nc4)C(=O)OC3(C)C(=O)C2=CO1 (centres unmarked) [In]", 363]
]}

* * *

Test: Absorbance of the adducts with butylamine in acetonitrile
Assay type: physicochemical
Conditions: Bioconjugated molecule (BuNH2) in CH3CN; longer-wavelength absorption maximum, used for excitation
endpoint_name: λ UV (nm), second maximum

{"columns": ["compound", "value_units", "λ UV (nm), second maximum"],
 "data": [
  ["COc1ccc(C(=O)C2=C3C=C4CC(C)(C)OC=C4C(=O)C3(C)OC2=O)cc1 (centres unmarked) [Ih]", "nm", 460],
  ["CC1CC2=CC3=C(C(=O)c4ccc5ccccc5c4)C(=O)OC3(C)C(=O)C2=CO1 (centres unmarked) [Id]", "nm", 464],
  ["COc1ccc(C(=O)C(C)C(=O)C2=C3C=C4CC(C)(C)OC=C4C(=O)C3(C)OC2=O)cc1 (centres unmarked) [Il]", "nm", 498],
  ["COc1ccc(/C(O)=C/C(=O)C2=C3C=C4CC(C)(C)OC=C4C(=O)C3(C)OC2=O)cc1 (centres unmarked) [Ij]", "nm", 505],
  ["COc1ccc(C(=O)C2=C3C=C4CC(C)OC=C4C(=O)C3(C)OC2=O)cc1 (centres unmarked) [Ib]", "nm", 452],
  ["CC1(C)CC2=CC3=C(/C(O)=C/C(=O)c4ccc(Cl)nc4)C(=O)OC3(C)C(=O)C2=CO1 (centres unmarked) [In]", "nm", 525],
  ["CC1CC2=CC3=C(C(=O)c4ccccc4)C(=O)OC3(C)C(=O)C2=CO1 (centres unmarked) [Ia]", "nm", 472],
  ["CC1CC2=CC3=C(C(=O)c4ccco4)C(=O)OC3(C)C(=O)C2=CO1 (centres unmarked) [Ic]", "nm", 465]
]}

* * *

Experiment: Absorbance of the adducts with butylamine in acetonitrile
Format: physicochemical
Conditions: Bioconjugated molecule (BuNH2) in CH3CN; longer-wavelength absorption maximum, used for excitation
endpoint_name: λ UV (nm), second maximum

{"columns": ["compound", "λ UV (nm), second maximum"],
 "data": [
  ["COCCOCCOc1ccc(C(=O)C2=C3C=C4CC(C)OC=C4C(=O)C3(C)OC2=O)cc1 (centres unmarked) [Ie]", 453],
  ["CC1(C)CC2=CC3=C(C(=O)/C=C(\\O)c4ccc5ccccc5c4)C(=O)OC3(C)C(=O)C2=CO1 (centres unmarked) [Io]", 520],
  ["COc1ccc(/C(O)=C/C(=O)C2=C3C=C4CC(C)OC=C4C(=O)C3(C)OC2=O)cc1 (centres unmarked) [Ii]", 497],
  ["C/C=C/C=C/C=C/C(=O)/C=C(\\O)C1=C2C=C3C[C@@H](CO)OC=C3C(=O)[C@@]2(C)OC1=O [epicocconone, reference compound]", 515],
  ["CC1(C)CC2=CC3=C(C(=O)/C=C(\\O)c4ccccc4)C(=O)OC3(C)C(=O)C2=CO1 (centres unmarked) [Ik]", 512],
  ["CC1CC2=CC3=C(C(=O)c4ccccc4O)C(=O)OC3(C)C(=O)C2=CO1 (centres unmarked) [Ig]", 463],
  ["COc1ccccc1C(=O)C1=C2C=C3CC(C)OC=C3C(=O)C2(C)OC1=O (centres unmarked) [If]", 469],
  ["CC(C(=O)C1=C2C=C3CC(C)(C)OC=C3C(=O)C2(C)OC1=O)C(=O)c1ccccc1 (centres unmarked) [Im]", 489]
]}
